Study System: CFTR (F508del/MF-HBE cells) (Homo sapiens, UniProt P13569, DEL508-508)
Construct: human bronchial epithelial (HBE) cells derived from CF subjects heterozygous for F508del and a minimal function CFTR mutation (F508del/MF-HBE); endogenous in cells; host or cells: Primary human bronchial epithelial cells from CF subjects (F508del/MF genotype), differentiated at an air-liquid interface
Sequence (P13569 with tags, fused parts or gaps DEL508-508): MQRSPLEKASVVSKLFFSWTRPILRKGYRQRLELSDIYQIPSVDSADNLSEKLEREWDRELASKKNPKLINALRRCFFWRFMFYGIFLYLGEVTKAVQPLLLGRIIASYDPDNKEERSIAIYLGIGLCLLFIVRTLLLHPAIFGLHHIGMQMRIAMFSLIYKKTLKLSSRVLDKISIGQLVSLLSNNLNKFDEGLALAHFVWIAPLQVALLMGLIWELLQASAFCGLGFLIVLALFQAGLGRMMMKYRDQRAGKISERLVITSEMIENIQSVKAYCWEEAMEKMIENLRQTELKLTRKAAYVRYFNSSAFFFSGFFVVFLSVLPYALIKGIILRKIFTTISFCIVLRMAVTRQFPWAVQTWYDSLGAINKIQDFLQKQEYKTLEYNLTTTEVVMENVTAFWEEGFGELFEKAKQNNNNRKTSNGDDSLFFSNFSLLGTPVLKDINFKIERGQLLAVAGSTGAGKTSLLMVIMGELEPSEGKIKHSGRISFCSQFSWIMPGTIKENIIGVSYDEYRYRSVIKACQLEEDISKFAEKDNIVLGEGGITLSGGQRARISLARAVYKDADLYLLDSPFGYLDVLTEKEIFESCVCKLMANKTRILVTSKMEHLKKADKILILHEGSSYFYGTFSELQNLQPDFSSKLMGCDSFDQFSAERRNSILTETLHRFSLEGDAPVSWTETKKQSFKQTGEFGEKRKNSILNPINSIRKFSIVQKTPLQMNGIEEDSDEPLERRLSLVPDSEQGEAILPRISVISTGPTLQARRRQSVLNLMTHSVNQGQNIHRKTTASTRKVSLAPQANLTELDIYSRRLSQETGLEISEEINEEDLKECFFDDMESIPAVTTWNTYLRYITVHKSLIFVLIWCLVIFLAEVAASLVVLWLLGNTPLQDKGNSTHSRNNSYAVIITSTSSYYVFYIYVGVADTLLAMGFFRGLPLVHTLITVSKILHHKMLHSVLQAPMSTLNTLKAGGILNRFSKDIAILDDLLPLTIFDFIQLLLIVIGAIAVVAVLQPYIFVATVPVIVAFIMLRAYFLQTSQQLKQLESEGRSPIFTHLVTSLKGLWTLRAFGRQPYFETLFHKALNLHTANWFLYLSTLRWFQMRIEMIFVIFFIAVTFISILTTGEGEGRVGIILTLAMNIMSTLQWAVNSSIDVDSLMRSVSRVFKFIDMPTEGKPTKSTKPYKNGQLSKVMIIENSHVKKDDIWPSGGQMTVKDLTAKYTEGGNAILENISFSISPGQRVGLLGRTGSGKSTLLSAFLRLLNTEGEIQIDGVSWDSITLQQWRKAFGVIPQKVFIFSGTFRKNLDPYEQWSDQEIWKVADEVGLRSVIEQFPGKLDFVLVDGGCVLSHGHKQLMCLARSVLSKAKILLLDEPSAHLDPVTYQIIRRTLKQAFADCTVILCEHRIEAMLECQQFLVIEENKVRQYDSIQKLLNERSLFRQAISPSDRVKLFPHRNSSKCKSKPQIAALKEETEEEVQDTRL
Assay: Ussing chamber assay of CFTR-mediated short-circuit currents, Assay C (0.026 μM to 25 μM, 6 concentrations)
Format: cell-based
Condition Notes: with 33 nM potentiator and 18 μM Tezacaftor, 20% human serum
Observation Type: EC50

Examples from the recorded data:
Molecule	Study System	Observation Type	Recorded Measurement
Cc1cccc(C)c1-c1nc2nc(c1C)OC[C@@H](CC1(C)CC1)N(Cc1cnc3cc(C(C)(C)C)n(C)c3n1)C(=O)c1cccc(c1)S(=O)(=O)N2	CFTR (F508del/MF-HBE cells) (Homo sapiens, UniProt P13569, DEL508-508)	EC50	< 1 µM
Cc1cccc(C)c1-c1cc2nc(n1)NS(=O)(=O)c1cccc(c1)C(=O)N(Cc1cnc3oc(C4CC4)cc3n1)[C@H]([C@H](C)OCc1ccccc1)CO2	CFTR (F508del/MF-HBE cells) (Homo sapiens, UniProt P13569, DEL508-508)	EC50	3 to 30 µM
Cc1cccc(C)c1-c1cc2nc(n1)NS(=O)(=O)c1cccc(c1)C(=O)N(Cc1cnc3oc(-c4ccnn4C)cc3n1)[C@H](CC1(C)CC1)CO2	CFTR (F508del/MF-HBE cells) (Homo sapiens, UniProt P13569, DEL508-508)	EC50	3 to 30 µM
Cc1cccc(C)c1-c1cc2nc(n1)NS(=O)(=O)c1cccc(c1)C(=O)N(Cc1cnc3oc(C4CC4)cc3n1)[C@H]([C@H](C)OC(C)(C)C)CO2 (stereo in doubt)	CFTR (F508del/MF-HBE cells) (Homo sapiens, UniProt P13569, DEL508-508)	EC50	1 to 3 µM
Cc1cccc(C)c1-c1cc2nc(n1)NS(=O)(=O)c1cccc(c1)C(=O)N(Cc1ncc3oc(C4CC4)cc3n1)[C@H](CC13CC(C1)C3)CO2	CFTR (F508del/MF-HBE cells) (Homo sapiens, UniProt P13569, DEL508-508)	EC50	1 to 3 µM
Cc1cccc(C)c1-c1cc2nc(n1)NS(=O)(=O)c1cccc(c1)C(=O)N(Cc1cnc3cc(C(C)(C)C)n(C)c3n1)[C@H](C[C@H]1CCC(C)(C)O1)CO2	CFTR (F508del/MF-HBE cells) (Homo sapiens, UniProt P13569, DEL508-508)	EC50	< 1 µM

Now take the following molecule into account.
// sample `Cc1cccc(C)c1-c1cc2nc(n1)NS(=O)(=O)c1cccc(c1)C(=O)N(Cc1cnc3oc(C(C)(C)C)cc3n1)[C@@H](C(C1CCC1)C1CCC1)CO2` , its EC50 was 3 to 30 µM

---

Study System: CFTR (F508del/MF-HBE cells) (Homo sapiens, UniProt P13569, DEL508-508)
Construct: human bronchial epithelial (HBE) cells derived from CF subjects heterozygous for F508del and a minimal function CFTR mutation (F508del/MF-HBE); endogenous in cells; host or cells: Primary human bronchial epithelial cells from CF subjects (F508del/MF genotype), differentiated at an air-liquid interface
Assay: Ussing chamber assay of CFTR-mediated short-circuit currents, Assay C (0.026 μM to 25 μM, 6 concentrations)
Assay type: cell-based
Condition Notes: with 33 nM potentiator and 18 μM Tezacaftor, 20% human serum
Observation Type: EC50

Examples from the recorded data:
Molecule	Observation Type	Recorded Measurement
Cc1cccc(C)c1-c1cc2nc(n1)NS(=O)(=O)c1cccc(c1)C(=O)N(Cc1cnc3oc(C(C)(C)C)cc3n1)[C@H](C[C@@H]1CCCO1)CO2 [IV-83]	EC50	1 to 3 µM
Cc1cccc(C)c1-c1cc2nc(n1)NS(=O)(=O)c1cccc(c1)C(=O)N(Cc1ncc3cc(C(C)(C)C)n(C)c3n1)[C@H](CC13CC(C1)C3)CO2 [IV-35]	EC50	< 1 µM
Cc1cccc(CC2CCCCC2)c1-c1nc2nc(c1C)OC[C@@H](CC(C)(C)C)N(Cc1cnc3cc(C(C)C)n(C)c3n1)C(=O)c1cccc(c1)S(=O)(=O)N2 (atropisomer, axis not shown) [Compound I-178]	EC50	< 1 µM
Cc1cccc(C)c1-c1cc2nc(n1)NS(=O)(=O)c1cccc(c1)C(=O)N(Cc1cnc3cc(C(C)(C)C)n(C)c3n1)[C@@H](CC1CC(F)(F)C1)CO2 (single isomer, unassigned) [IV-55]	EC50	< 1 µM

Now take the following molecule into account.
// sample Cc1cccc(CC(C)C)c1-c1nc2nc(c1C)OC[C@@H](CC(C)(C)C)N(Cc1ncc3cc(C4CC4)n(C)c3n1)C(=O)c1cccc(c1)S(=O)(=O)N2 (atropisomer, axis not shown) [IV-25] , its EC50 was 1 to 3 µM

---

Each record here notes measured pEC50.
Study System: CFTR (F508del/MF-HBE cells) (Homo sapiens, UniProt P13569, DEL508-508)
Construct: human bronchial epithelial (HBE) cells derived from CF subjects heterozygous for F508del and a minimal function CFTR mutation (F508del/MF-HBE); endogenous in cells; host or cells: Primary human bronchial epithelial cells from CF subjects (F508del/MF genotype), differentiated at an air-liquid interface
Assay: Ussing chamber assay of CFTR-mediated short-circuit currents, Assay C (0.026 μM to 25 μM, 6 concentrations)
Assay type: cell-based
Condition Notes: with 33 nM potentiator and 18 μM Tezacaftor, 20% human serum
pEC50: −log10 of the molar value.

// sample `CCC(C)(C)C[C@H]1COc2cc(-c3c(C)cccc3C)nc(n2)NS(=O)(=O)c2cccc(c2)C(=O)N1Cc1cnc2oc(C(C)(C)C)cc2n1` , its pEC50 was 5.52 to 6.00

// sample `Cc1cccc(C)c1-c1cc2nc(n1)NS(=O)(=O)c1cccc(c1)C(=O)N(Cc1cnc3cc(C(C)(C)C)[nH]c3n1)[C@H](CC1(C)CC1)CO2` , its pEC50 was 4.52 to 5.52

// sample Cc1cccc(CCC(C)C)c1-c1nc2nc(c1C)OC[C@@H](CC(C)(C)C)N(Cc1cnc3cc(C(C)C)n(C)c3n1)C(=O)c1cccc(c1)S(=O)(=O)N2 (single isomer, unassigned) , its pEC50 was > 6.00

// sample Cc1cccc(CCC(C)C)c1-c1nc2nc(c1C)OC[C@@H](CC(C)(C)C)N(Cc1cnc3oc(C4CC4)cc3n1)C(=O)c1cccc(c1)S(=O)(=O)N2 (atropisomer, axis not shown) , its pEC50 was > 6.00

// sample `CCC(CC)[C@@H]1COc2cc(-c3c(C)cccc3C)nc(n2)NS(=O)(=O)c2cccc(c2)C(=O)N1Cc1cnc2oc(C(C)(C)C)cc2n1` , its pEC50 was 5.52 to 6.00

---

Study System: CFTR (F508del/MF-HBE cells) (Homo sapiens, UniProt P13569, DEL508-508)
Construct: human bronchial epithelial (HBE) cells derived from CF subjects heterozygous for F508del and a minimal function CFTR mutation (F508del/MF-HBE); endogenous in cells; host or cells: Primary human bronchial epithelial cells from CF subjects (F508del/MF genotype), differentiated at an air-liquid interface
Assay: Ussing chamber assay of CFTR-mediated short-circuit currents, Assay C (0.026 μM to 25 μM, 6 concentrations)
Format: cell-based
Condition Notes: with 33 nM potentiator and 18 μM Tezacaftor, 18-24 hours, 20% human serum, read-out: C Max activity (%)
Observation Type: Emax

Examples from the recorded data:
Compound	Emax
COc1c2nc(nc1-c1c(C)cccc1C)NS(=O)(=O)c1cccc(c1)C(=O)N(Cc1cnc3cc(C(C)C)n(C)c3n1)[C@H](CC(C)(C)C)CC2 [Compound I-158]	> 60%
Cc1cccc(C)c1-c1cc2nc(n1)NS(=O)(=O)c1cccc(c1)C(=O)N(Cc1ncc3oc(C4CC4)cc3n1)[C@H](CC1(C)CC1)CO2 [Compound I-199]	> 60%
Cc1cccc(CCC(C)C)c1-c1nc2nc(c1C)OC[C@@H](CC(C)(C)C)N(Cc1cnc3cc(C(C)C)n(C)c3n1)C(=O)c1cccc(c1)S(=O)(=O)N2 (single isomer, unassigned) [Compound I-202]	> 60%
Cc1cccc(C2CC2)c1-c1nc2nc(c1C)OC[C@@H](CC(C)(C)C)N(Cc1cnc3oc(C4CC4)cc3n1)C(=O)c1cccc(c1)S(=O)(=O)N2 (atropisomer, axis not shown) [Compound I-152]	> 60%
Cc1cccc(C)c1-c1cc2nc(n1)NS(=O)(=O)c1cccc(c1)C(=O)N(Cc1cnc3oc(C4(C)CCC4)cc3n1)[C@H](CC1(C)CC1)CO2 [Compound I-143]	> 60%
Cc1cccc(C)c1-c1cc2nc(n1)NS(=O)(=O)c1cccc(c1)C(=O)N(Cc1nc3cc(C4CC4)oc3cc1F)[C@H](CC13CC(C1)C3)CO2 [Compound I-208]	> 60%

// sample Cc1cccc(C)c1-c1nc2nc(c1C)OC[C@@H](CC(C)(C)C)N(Cc1cnc3cc(C(C)C)n(C)c3n1)C(=O)c1cccc(c1)S(=O)(=O)N2 [Compound I-168] , its Emax was > 60%

// sample Cc1cccc(C)c1-c1cc2nc(n1)NS(=O)(=O)c1cccc(c1)C(=O)N(Cc1cnc3oc(C(C)(C)CO)cc3n1)[C@H](CC13CC(C1)C3)CO2 [Compound I-113] , its Emax was > 60%

// sample Cc1cccc(C)c1-c1cc2nc(n1)NS(=O)(=O)c1cccc(c1)C(=O)N(Cc1cnc3oc(C)c(C4CC4)c3n1)[C@H](CC13CC(C1)C3)CO2 [Compound I-86] , its Emax was > 60%

// sample Cc1cccc(C)c1-c1cc2nc(n1)NS(=O)(=O)c1cccc(c1)C(=O)N(Cc1cnc3cc(C4CC4)n(C)c3n1)[C@@H](CCC1(C)CC1)CO2 (stereo in doubt) [Compound I-207] , its Emax was > 60%

// sample Cc1cccc(C)c1-c1cc2nc(n1)NS(=O)(=O)c1cccc(c1)C(=O)N(Cc1cnc3oc(C4CCC4)cc3n1)[C@H](CC1(C)CC1)CO2 [Compound I-133] , its Emax was > 60%

// sample Cc1cccc(C)c1-c1nc2nc(c1C)OC[C@@H](C[C@H]1CCCCO1)N(Cc1cnc3cc(C4CC4)n(C)c3n1)C(=O)c1cccc(c1)S(=O)(=O)N2 [Compound I-193] , its Emax was > 60%

// sample Cc1cccc(C)c1-c1cc2nc(n1)NS(=O)(=O)c1cccc(c1)C(=O)N(Cc1cnc3oc(C(C)CO)cc3n1)[C@H](CC1(C)CC1)CO2 (stereo partly drawn) [Compound I-256] , its Emax was > 60%

// sample Cc1cccc(C)c1-c1nc2nc(c1C)OC[C@@H](CC13CC(C1)C3)N(Cc1cnc3cc(C4(C)CC4)n(C)c3n1)C(=O)c1cccc(c1)S(=O)(=O)N2 [Compound I-228] , its Emax was > 60%
